Recorded measurements of van der Waals contact distance GLY 656 atom C, one per entry
- TARGET OF ASSAY: MASP-2 CCP2-SP (Homo sapiens (Human))
- Sequence (O00187 445-686): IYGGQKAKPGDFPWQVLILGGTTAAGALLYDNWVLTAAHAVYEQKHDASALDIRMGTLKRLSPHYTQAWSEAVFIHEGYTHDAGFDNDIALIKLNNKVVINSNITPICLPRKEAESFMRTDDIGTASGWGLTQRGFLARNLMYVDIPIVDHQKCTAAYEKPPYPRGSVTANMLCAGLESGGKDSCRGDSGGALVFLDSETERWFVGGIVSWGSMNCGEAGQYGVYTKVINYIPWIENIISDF
- Sequence (O00187 364-432 partner): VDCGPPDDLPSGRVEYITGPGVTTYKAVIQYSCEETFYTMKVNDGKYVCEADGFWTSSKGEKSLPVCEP
- PROTOCOL DETAILS: MASP-2 co-crystallization, X-ray crystallography and structure analysis (H-bonds, van der Waals contacts)
- Set-up: unit not given beside the values
- CONDITION LABEL: Table A2-13; MASP-2 GLY 656 C
Answer with the value's number alone.

Below, each entry is followed by its recorded van der Waals contact distance GLY 656 atom C result.
INSERT INTO assay_data (test_smiles, measured) VALUES
  ('C[C@H](NC(=O)[C@H]1C[C@H](Cc2ccccc2)CN1)C(=O)NCc1ccc(C(=N)N)cc1', 3.54),
  ('N=C(N)c1ccc(CNC(=O)[C@@H]2CCN2C(=O)[C@H](NCC(=O)O)C2Cc3ccccc3C2)cc1', 3.54),
  ('C[C@H](NC(=O)[C@H](N)CCc1ccccc1)C(=O)NCc1ccc(C(=N)N)cc1', 3.53);

Turning now to a further record.
Look up van der Waals contact distance GLY 656 atom C for this compound: "C[C@H](NC(=O)[C@H]1Cc2c([nH]c3ccccc23)CN1)C(=O)NCc1ccc(C(=N)N)cc1"
3.46
